Hello, the source for this data is paper PMC4774972, in case you need it.

Tested on: HepG2 cells
experimentDescription: Cytotoxicity assay (resazurin assay)
Type: cell-based, human
conditionNotes: 4000 cells/well, 24 h incubation with compound, fluorescence 560/590
Bridge positions count the residues as written; N and C are the ends. Square brackets hold non-standard residues; d marks the D form. Peptide text beside a SMILES is read from it. * marks the point of attachment. dDab = NCC[C@@H](N)C(=O)O; Octanoyl = CCCCCCCC(=O)*; Dab = NCC[C@H](N)C(=O)O
readoutName: HepG2 - CC50

Inquiry: # get_value(readout= HepG2 - CC50, system= HepG2 cells) for CCCCCCCC(=O)N[C@@H](CCN)C(=O)N[C@H](C(=O)N[C@H](CCN)C(=O)N[C@H]1CCNC(=O)[C@H]([C@@H](C)O)NC(=O)[C@H](CCN)NC(=O)[C@H](CCN)NC(=O)[C@H](CC(C)C)NC(=O)[C@@H](Cc2ccccc2)NC(=O)[C@H](CCN)NC1=O)[C@@H](C)O [Compound 36] (Octanoyl-[Dab]T[dDab][Dab][Dab][dF]L[Dab][Dab]T; lactam 4-C)
Reply text: >300 µM

Inquiry: # get_value(readout= HepG2 - CC50, system= HepG2 cells) for CCCCCCCC(=O)N[C@@H](CCN)C(=O)N[C@H](C(=O)NCC(=O)N[C@H]1CCNC(=O)[C@H]([C@@H](C)O)NC(=O)[C@H](CCN)NC(=O)[C@H](CCN)NC(=O)[C@H](CC(C)C)NC(=O)[C@@H](Cc2ccccc2)NC(=O)[C@H](CCN)NC1=O)[C@@H](C)O [Compound 38] (Octanoyl-[Dab]TG[Dab][Dab][dF]L[Dab][Dab]T; lactam 4-C)
Reply text: > 300 µM

Inquiry: # get_value(readout= HepG2 - CC50, system= HepG2 cells) for CCCCCCCC(=O)N[C@H](C(=O)NCC(=O)N[C@H]1CCNC(=O)[C@H]([C@@H](C)O)NC(=O)[C@H](CCN)NC(=O)[C@H](CCN)NC(=O)[C@H](CC(C)C)NC(=O)[C@@H](Cc2ccccc2)NC(=O)[C@H](CCN)NC1=O)[C@@H](C)O [Compound 39] (Octanoyl-TG[Dab][Dab][dF]L[Dab][Dab]T; lactam 3-C)
Reply text: >300 µM

* * *

Tested on: HepG2
conditionNotes: CC50 HepG2 (µM)
Numbered stars: 1 amine (or outer) side, 2 acyl side, 3 side chain; on linkers, the order of the positions; unused ones are H or OH. Bridge positions count the residues as written; N and C are the ends. Square brackets hold non-standard residues; d marks the D form. Peptide text beside a SMILES is read from it. * marks the point of attachment. NH(2-ClPh) = Clc1ccccc1N*; Octanoyl = CCCCCCCC(=O)*; Dab = NCC[C@H](N)C(=O)O; CO = O=C([*:1])[*:2]
readoutName: CC50

Inquiry: Any idea what CC50 was measured for CCCCCCCC(=O)N[C@H](C(=O)N[C@@H](CCN)C(=O)N[C@H]1CCNC(=O)[C@H]([C@@H](C)O)NC(=O)[C@H](CCN)NC(=O)[C@H](CCN)NC(=O)[C@H](CC(C)C)NC(=O)[C@@H](Cc2ccccc2)NC(=O)[C@H](CCN)NC1=O)[C@@H](C)O [Compound 12] (Octanoyl-T[Dab][Dab][Dab][dF]L[Dab][Dab]T; lactam 3-C) ?
Reply text: > 300 µM

Inquiry: Any idea what CC50 was measured for CC(C)C[C@@H]1NC(=O)[C@@H](Cc2ccccc2)NC(=O)[C@H](CCN)NC(=O)[C@@H](NC(=O)[C@H](CCN)NC(=O)[C@@H](NC(=O)[C@H](CCN)NC(=O)Nc2ccccc2Cl)[C@@H](C)O)CCNC(=O)[C@H]([C@@H](C)O)NC(=O)[C@H](CCN)NC(=O)[C@H](CCN)NC1=O [Compound 13] ({NH(2-ClPh)-CO}-[Dab]T[Dab][Dab][Dab][dF]L[Dab][Dab]T; lactam 4-C) ?
Reply text: > 300 µM
